- Tested on: Escherichia coli TOP10;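 further: peptides expressed intracellularly from a pBAD plasmid library in pooled LB shake-flask culture, induced with 0.3% L-arabinose, DNA abundance read by NGS, three biological replicates, DESeq2 with apeglm shrinkage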
- assay: shrunken log2 fold change of peptide-encoding DNA abundance (4.5 h post-induction vs induction); higher = less antimicrobial activity (less host growth inhibition)
- condition-info: time post-induction: 4.5 h; library: site-saturation at positions 5, 18, 19, 20
Label yes (1) when shrunken log2 fold change is at or above 0.1; otherwise label no (0).

residue-codes	label-class
RRIRYRPPRLPRPRPRPPHNPRP	no (0)
RRIRCRPPRLPRPRPRPTCDPRP	yes (1)
RRIRVRPPRLPRPRPRPFANPRP	no (0)
RRIRVRPPRLPRPRPRPVIEPRP	yes (1)
RRIRTRPPRLPRPRPRPMWGPRP	no (0)
RRIRTRPPRLPRPRPRPGISPRP	no (0)
RRIRFRPPRLPRPRPRPHWFPRP	no (0)
RRIRNRPPRLPRPRPRPFSMPRP	no (0)
RRIRHRPPRLPRPRPRPMFDPRP	yes (1)
RRIRWRPPRLPRPRPRPLDLPRP	no (0)
RRIRGRPPRLPRPRPRPLVFPRP	yes (1)
RRIRQRPPRLPRPRPRPWITPRP	no (0)
RRIRQRPPRLPRPRPRPGLAPRP	yes (1)
RRIRYRPPRLPRPRPRPGGWPRP	yes (1)
RRIRGRPPRLPRPRPRPEYIPRP	yes (1)
RRIRHRPPRLPRPRPRPPRRPRP	yes (1)
RRIRDRPPRLPRPRPRPQYRPRP	no (0)
RRIRLRPPRLPRPRPRPVHVPRP	no (0)
RRIRYRPPRLPRPRPRPCPGPRP	no (0)
RRIRHRPPRLPRPRPRPHRAPRP	no (0)
RRIRDRPPRLPRPRPRPHTGPRP	no (0)
RRIRHRPPRLPRPRPRPVYGPRP	no (0)
RRIRSRPPRLPRPRPRPEIGPRP	yes (1)
